Value source: the RNAGym collection of RNA variant scans (doi:10.1021/acssynbio.7b00057)

B1: Pistol ribozyme (parent)
chain: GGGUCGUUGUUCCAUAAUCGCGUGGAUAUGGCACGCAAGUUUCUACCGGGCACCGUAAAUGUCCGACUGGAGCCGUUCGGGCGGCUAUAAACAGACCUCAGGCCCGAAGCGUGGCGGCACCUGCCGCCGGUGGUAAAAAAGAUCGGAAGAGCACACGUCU

Variants of: B1
procedure text: aptazyme ON/OFF ratio, guanine; higher = stronger switching; co-transcriptional cleavage with and without guanine
observation type: aptazyme ON/OFF ratio
One number for each entry.

Below: 3 variants and their reported aptazyme ON/OFF ratio.
U7G U8A U10A C12U C13A: 1.24
U7C U8A G9A U10G U11C C12A C13U: 1.18
U7C U8C G9C U11G: 1.24

Could I get aptazyme ON/OFF ratio for every one of these entries?
1. U7G U8G U10G U11A C12G C13U
2. U8G G9A U10C U11G C13G
3. U7A U8G U10A U11G C13A

Result:
[1.47, 1.16, 1.29]

Could I get aptazyme ON/OFF ratio for every one of these entries?
1. U7C G9C U10C U11A C12G C13U
2. U7C G9A U10G C12A C13U
3. U8A G9U U10G U11G C12A C13G
4. U8A G9U U10G C12A
5. U7G G9A U11C C13G
6. U7A U8C U10A C12U C13A

Result:
1: 1.14; 2: 1.19; 3: 1.14; 4: 1.18; 5: 1.09; 6: 1.11

Could I get aptazyme ON/OFF ratio for every one of these entries?
1. U7C U8C G9A U10G C12G C13A
2. U7A U8A U10G C12U C13G
3. U7A U8C U10C C12G C13G
4. U7G U8A G9C U10A U11C C12U C13A
5. U7G U8A G9U U10C U11C C12U C13U
6. U7A G9U U11G C12A C13A

Result:
1: 1.2; 2: 1.13; 3: 1.22; 4: 1.03; 5: 1.06; 6: 1.18

Could I get aptazyme ON/OFF ratio for every one of these entries?
1. U7C U8G G9U U11C C12A C13G
2. U7A U8A G9C U10G U11A
3. U7G U8G G9A U10A C12A C13U

Result:
1: 1.13; 2: 1.06; 3: 1.06

Could I get aptazyme ON/OFF ratio for every one of these entries?
1. U7C U8C G9A U10G U11C C12G
2. U7G U11A C12G C13A
3. U8A U10A U11C C12G C13G

Result:
[1.12, 1.08, 1.27]

Could I get aptazyme ON/OFF ratio for every one of these entries?
1. U7C U8G U10G U11C C12U C13A
2. U7G U8A C12G
3. U7A U8C G9C U11A C12U C13A
4. U7G U8G G9A U10A U11G C12G C13U
5. U8A G9A U10C U11A C12U C13A
6. U7A U8A G9U U11A C12U C13A
7. U7G U10C U11G C12U C13G
8. U7C U8C U10G U11A C12G C13A

Result:
1.33
1.35
1.09
1.06
1.31
1.04
1.13
1.08

Could I get aptazyme ON/OFF ratio for every one of these entries?
1. U8A G9C U10G U11A C12A
2. U7A U8G G9C U10G U11C C12U

Result:
1.31
1.07

Could I get aptazyme ON/OFF ratio for every one of these entries?
1. U7C G9A U10A C12U
2. U7A U8C G9A U10C U11A C12A C13U

Result:
1: 1.35; 2: 1.19
